Molecular target: SpRvs167
Assay: SPOT peptide array binding signal intensity (averaged, normalized) (arbitrary units (background-subtracted, floor 0; scale differs between SH3 domains)); higher = stronger binding of the SH3 domain to the peptide
READOUT_NAME: SPOT peptide array binding signal intensity

> print(dat)
            binder  censoring.qualifier  value
1  NLDRSKISLPDFDDE                    =    0.5
2  VPPPMQPPPIESSNL                    ≤      0
3  NAGIRPKFILALNDE                    =    3.5
4  FIRKRAPTPPAPSRS                    =    293
5  KDKKTKPTPPPKPSH                    =      2

Just for reference, the supplement of paper PMC4466140 is where these values come from.
